Catalogue of pIC50 readings, one per entry.
Subject of test: CDK4/cyclin D1 (Homo sapiens (Human), UniProt P11802)
Sequence (P11802 whole entry): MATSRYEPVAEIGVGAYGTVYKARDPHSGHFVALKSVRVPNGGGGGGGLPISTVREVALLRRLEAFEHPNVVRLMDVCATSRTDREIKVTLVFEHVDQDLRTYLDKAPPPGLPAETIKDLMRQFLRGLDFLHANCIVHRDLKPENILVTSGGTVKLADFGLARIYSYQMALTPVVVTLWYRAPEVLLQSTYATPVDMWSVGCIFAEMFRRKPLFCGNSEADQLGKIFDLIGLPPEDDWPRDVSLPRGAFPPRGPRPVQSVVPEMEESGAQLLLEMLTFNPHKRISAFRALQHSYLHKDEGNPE
Sequence (P24385 whole entry partner): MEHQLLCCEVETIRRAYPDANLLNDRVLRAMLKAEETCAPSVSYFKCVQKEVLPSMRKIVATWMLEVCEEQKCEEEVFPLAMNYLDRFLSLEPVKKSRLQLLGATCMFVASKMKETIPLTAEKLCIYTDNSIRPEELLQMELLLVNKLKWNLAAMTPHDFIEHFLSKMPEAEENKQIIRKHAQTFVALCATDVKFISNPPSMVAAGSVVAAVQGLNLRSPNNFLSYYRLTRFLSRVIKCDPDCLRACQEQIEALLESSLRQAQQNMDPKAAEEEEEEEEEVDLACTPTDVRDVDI
Assay: Biochemical kinase inhibitory assay, CDK4/cyclin D1
Settings: recombinant CDK4/cyclin D1; in the presence of 10 μM ATP
pIC50: −log10 of the molar value.

Solved entries:
1. CC(C)n1cnc2ccc3cnc(Nc4ccc(N5CCC6(CNC6)C5)cn4)nc3c21 [Compound I-29]; 7.30 to 8.00
2. Cc1nc(Nc2ncc3ccc4ncn(C5CC5)c4c3n2)ccc1N1CCOCC1 [Compound I-51]; 7.30 to 8.00
3. CC(C)n1cnc2c(Br)cc3cnc(Nc4ccc(N5CCC6(CC5)CNC6)cn4)nc3c21 [Compound I-71]; 7.30 to 8.00

Let's switch to this compound now.
Query block: Form field: reported pIC50 of c1cc(Nc2ncc3ccc4ncn(C5CCCC5)c4c3n2)ncc1N1CCOCC1 [Compound I-60]
Result block: 8.00 to 8.70
